Target: HIV-1 integrase (IN) (Human immunodeficiency virus type 1 group M subtype B, UniProt P12497)
Assay: In vitro integrase catalytic assay, 3'-processing (3'-P)
Assay type: biochemical
Conditions: 400 nM IN, 20 nM 32P-labeled 21T/21B DNA, 37 °C, 2 h
Experimental: IN reactions were performed as previously described. […] Reactions were performed at 37 °C (2 h) and quenched by the addition of an equal volume of loading buffer (formamide containing 1% sodium dodecyl sulfate, 0.25% bromophenol blue, and xylene cyanol). Reaction products were separated in 16% polyacrylamide denaturing sequencing gels. […] Formation of the shorter processed 19T products was monitored and quantified to assess enzyme performance and inhibitor potency. […]
pIC50: −log10 of the molar value.
VALUE_TYPE: pIC50

>  <SUBSTANCE>
Biotin-linker-BIHFRIG [Peptide 15]

>  <VALUE_TYPE>
pIC50

>  <REPORTED>
4.49

$$$$

====

target: HIV-1 integrase (IN) (Human immunodeficiency virus type 1 group M subtype B); assay: In vitro integrase catalytic assay, strand transfer (ST); assay type: biochemical; details: 400 nM IN, 20 nM 32P-labeled pre-cleaved 19T/21B DNA, 37 °C, 2 h
Where a SMILES comes first, the peptide text is derived from it. [ ]: non-standard residue; d: D form. Bpa = N[C@@H](Cc1ccc(C(=O)c2ccccc2)cc1)C(=O)O
VALUE_TYPE: log10 of IC50 (log10 of the value in µM)

>  <MOLECULE>
CC[C@H](C)[C@H](NC(=O)[C@H](CCCNC(=N)N)NC(=O)[C@H](C)NC(=O)[C@H](Cc1c[nH]cn1)NC(=O)[C@@H](NC(=O)[C@H](Cc1ccccc1)NC(C)=O)[C@@H](C)CC)C(=O)NCC(N)=O [Peptide 5c, Ac-FIHARIG-amide] (Ac-FIHARIG-NH2)

>  <TEST_TARGET>
HIV-1 integrase (IN) (Human immunodeficiency virus type 1 group M subtype B)

>  <log10 of IC50>
2.07

$$$$
>  <MOLECULE>
CC[C@H](C)[C@H](NC(=O)[C@H](CCCNC(=N)N)NC(=O)[C@H](Cc1ccccc1)NC(=O)[C@H](Cc1c[nH]cn1)NC(=O)[C@H](Cc1ccc(C(=O)c2ccccc2)cc1)NC(=O)[C@@H](N)Cc1ccccc1)C(=O)NCC(=O)O [Peptide 13a, FBHFRIG] (H-F[Bpa]HFRIG-OH)

>  <TEST_TARGET>
HIV-1 integrase (IN) (Human immunodeficiency virus type 1 group M subtype B)

>  <log10 of IC50>
1.30

$$$$
>  <MOLECULE>
CC[C@H](C)[C@H](NC(=O)[C@H](CCCNC(=N)N)NC(=O)[C@H](Cc1ccccc1)NC(=O)[C@H](Cc1c[nH]cn1)NC(=O)[C@@H](NC(=O)[C@@H](N)Cc1ccc(C(=O)c2ccccc2)cc1)[C@@H](C)CC)C(=O)NCC(=O)O [Peptide 14a, BIHFRIG] (H-[Bpa]IHFRIG-OH)

>  <TEST_TARGET>
HIV-1 integrase (IN) (Human immunodeficiency virus type 1 group M subtype B)

>  <log10 of IC50>
0.32

$$$$
>  <MOLECULE>
CC[C@H](C)[C@H](NC(=O)[C@H](CCCNC(=N)N)NC(=O)[C@H](Cc1ccccc1)NC(=O)[C@H](Cc1c[nH]cn1)NC(=O)[C@@H](NC(=O)[C@@H](N)Cc1ccccc1)[C@@H](C)CC)C(=O)N[C@@H](C)C(N)=O [Peptide 2b, FIHFRIA-amide] (H-FIHFRIA-NH2)

>  <TEST_TARGET>
HIV-1 integrase (IN) (Human immunodeficiency virus type 1 group M subtype B)

>  <log10 of IC50>
1.78

$$$$
>  <MOLECULE>
CC[C@H](C)[C@H](NC(=O)[C@H](CCCNC(=N)N)NC(=O)[C@H](Cc1ccccc1)NC(=O)[C@H](Cc1c[nH]cn1)NC(=O)[C@@H](NC(=O)[C@@H](N)Cc1ccccc1)[C@@H](C)CC)C(=O)NCC(N)=O [Peptide 1b, FIHFRIG-amide] (H-FIHFRIG-NH2)

>  <TEST_TARGET>
HIV-1 integrase (IN) (Human immunodeficiency virus type 1 group M subtype B)

>  <log10 of IC50>
0.86

$$$$

====

Below: a set of entries, each annotated with reported IC50.
target: HIV-1 integrase (IN) (Human immunodeficiency virus type 1 group M subtype B); experiment: In vitro integrase catalytic assay, 3'-processing (3'-P); format: biochemical; settings: 400 nM IN, 20 nM 32P-labeled 21T/21B DNA, 37 °C, 2 h
Where a SMILES comes first, the peptide text is derived from it. [ ]: non-standard residue; d: D form. Bpa = N[C@@H](Cc1ccc(C(=O)c2ccccc2)cc1)C(=O)O

>  <COMPOUND>
CC[C@H](C)[C@H](NC(=O)[C@H](Cc1ccccc1)NC(C)=O)C(=O)N[C@@H](Cc1c[nH]cn1)C(=O)N[C@@H](Cc1ccccc1)C(=O)N[C@@H](CCCNC(=N)N)C(=O)N[C@@H](C)C(=O)NCC(N)=O [Peptide 3c, Ac-FIHFRAG-amide] (Ac-FIHFRAG-NH2)

>  <COMPARISON_SIGN>
=

>  <IC50 [µM]>
208

$$$$
>  <COMPOUND>
CC[C@H](C)[C@H](NC(=O)[C@H](CCCNC(=N)N)NC(=O)[C@H](Cc1ccccc1)NC(=O)[C@H](Cc1c[nH]cn1)NC(=O)[C@@H](NC(=O)[C@@H](N)Cc1ccccc1)[C@@H](C)CC)C(=O)N[C@@H](C)C(N)=O [Peptide 2b, FIHFRIA-amide] (H-FIHFRIA-NH2)

>  <COMPARISON_SIGN>
>

>  <IC50 [µM]>
111

$$$$
>  <COMPOUND>
CC[C@H](C)[C@H](NC(=O)[C@H](CCCNC(=N)N)NC(=O)[C@H](Cc1ccccc1)NC(=O)[C@H](Cc1c[nH]cn1)NC(=O)[C@@H](NC(=O)[C@@H](N)Cc1ccccc1)[C@@H](C)CC)C(=O)NCC(N)=O [Peptide 1b, FIHFRIG-amide] (H-FIHFRIG-NH2)

>  <COMPARISON_SIGN>
=

>  <IC50 [µM]>
31.5

$$$$
>  <COMPOUND>
CC[C@H](C)[C@H](NC(=O)[C@H](CCCNC(=N)N)NC(=O)[C@H](Cc1ccccc1)NC(=O)[C@H](Cc1c[nH]cn1)NC(=O)[C@H](Cc1ccc(C(=O)c2ccccc2)cc1)NC(=O)[C@@H](N)Cc1ccccc1)C(=O)NCC(=O)O [Peptide 13a, FBHFRIG] (H-F[Bpa]HFRIG-OH)

>  <COMPARISON_SIGN>
=

>  <IC50 [µM]>
37

$$$$
>  <COMPOUND>
CC[C@H](C)[C@H](NC(=O)[C@H](C)NC(C)=O)C(=O)N[C@@H](Cc1c[nH]cn1)C(=O)N[C@@H](Cc1ccccc1)C(=O)N[C@@H](CCCNC(=N)N)C(=O)N[C@H](C(=O)NCC(N)=O)[C@@H](C)CC [Peptide 8c, Ac-AIHFRIG-amide] (Ac-AIHFRIG-NH2)

>  <COMPARISON_SIGN>
>

>  <IC50 [µM]>
333

$$$$
>  <COMPOUND>
CC[C@H](C)[C@H](NC(=O)[C@@H](N)Cc1ccccc1)C(=O)N[C@@H](Cc1c[nH]cn1)C(=O)N[C@@H](Cc1ccccc1)C(=O)N[C@@H](CCCNC(=N)N)C(=O)N[C@@H](Cc1ccc(C(=O)c2ccccc2)cc1)C(=O)NCC(=O)O [Peptide 9a, FIHFRBG] (H-FIHFR[Bpa]G-OH)

>  <COMPARISON_SIGN>
=

>  <IC50 [µM]>
20

$$$$
>  <COMPOUND>
CC[C@H](C)[C@H](NC(=O)[C@H](CCCNC(=N)N)NC(=O)[C@H](Cc1ccccc1)NC(=O)[C@H](Cc1c[nH]cn1)NC(=O)[C@@H](NC(=O)[C@@H](N)Cc1ccccc1)[C@@H](C)CC)C(=O)N[C@@H](C)C(=O)O [Peptide 2a, FIHFRIA] (H-FIHFRIA-OH)

>  <COMPARISON_SIGN>
>

>  <IC50 [µM]>
111

$$$$
>  <COMPOUND>
CC[C@H](C)[C@H](NC(=O)[C@@H](N)Cc1ccccc1)C(=O)N[C@@H](Cc1c[nH]cn1)C(=O)N[C@@H](Cc1ccccc1)C(=O)N[C@@H](CCCNC(=N)N)C(=O)N[C@@H](C)C(=O)NCC(N)=O [Peptide 3b, FIHFRAG-amide] (H-FIHFRAG-NH2)

>  <COMPARISON_SIGN>
>

>  <IC50 [µM]>
111

$$$$
>  <COMPOUND>
CC[C@H](C)[C@H](NC(=O)[C@H](CCCNC(=N)N)NC(=O)[C@H](C)NC(=O)[C@H](Cc1c[nH]cn1)NC(=O)[C@@H](NC(=O)[C@H](Cc1ccccc1)NC(C)=O)[C@@H](C)CC)C(=O)NCC(N)=O [Peptide 5c, Ac-FIHARIG-amide] (Ac-FIHARIG-NH2)

>  <COMPARISON_SIGN>
>

>  <IC50 [µM]>
333

$$$$
>  <COMPOUND>
CC[C@H](C)[C@H](NC(=O)[C@H](CCCNC(=N)N)NC(=O)[C@H](Cc1ccccc1)NC(=O)[C@H](C)NC(=O)[C@@H](NC(=O)[C@H](Cc1ccccc1)NC(C)=O)[C@@H](C)CC)C(=O)NCC(N)=O [Peptide 6c, Ac-FIAFRIG-amide] (Ac-FIAFRIG-NH2)

>  <COMPARISON_SIGN>
=

>  <IC50 [µM]>
94

$$$$
>  <COMPOUND>
CC[C@H](C)[C@H](NC(=O)[C@H](C)NC(=O)[C@H](Cc1ccccc1)NC(=O)[C@H](Cc1c[nH]cn1)NC(=O)[C@@H](NC(=O)[C@@H](N)Cc1ccccc1)[C@@H](C)CC)C(=O)NCC(=O)O [Peptide 4a, FIHFAIG] (H-FIHFAIG-OH)

>  <COMPARISON_SIGN>
>

>  <IC50 [µM]>
111

$$$$
>  <COMPOUND>
CC[C@H](C)[C@H](NC(=O)[C@H](Cc1ccc(C(=O)c2ccccc2)cc1)NC(=O)[C@H](Cc1ccccc1)NC(=O)[C@H](Cc1c[nH]cn1)NC(=O)[C@@H](NC(=O)[C@@H](N)Cc1ccccc1)[C@@H](C)CC)C(=O)NCC(=O)O [Peptide 10a, FIHFBIG] (H-FIHF[Bpa]IG-OH)

>  <COMPARISON_SIGN>
>

>  <IC50 [µM]>
333

$$$$
>  <COMPOUND>
CC[C@H](C)[C@H](NC(=O)[C@H](CCCNC(=N)N)NC(=O)[C@H](Cc1ccccc1)NC(=O)[C@H](C)NC(=O)[C@@H](NC(=O)[C@@H](N)Cc1ccccc1)[C@@H](C)CC)C(=O)NCC(=O)O [Peptide 6a, FIAFRIG] (H-FIAFRIG-OH)

>  <COMPARISON_SIGN>
=

>  <IC50 [µM]>
17.4

$$$$
